Tested on: H358 (G12C) cells
Measurement protocol: Cell viability assay (CELLTITER-GLO), H358 cells
Type: cell-based
Settings: Homo sapiens, NCI-H358, 72 h, 3 days incubation, 2.5% fetal bovine serum, read-out: Inhibition of Cancerous Cells IC50 (μM) H358 (G12C)
# strict inequality: IC50 < 1 µM yields Yes, everything else yields No

Ask: Below 1 µM on IC50? Entry Cc1nn2c(N3CCN(CCO)CC3)cc(-c3cccc(CCCN4CCN(C(=O)CNc5ccc(C6CCC(=O)NC6=O)cc5)CC4)c3)nc2c1-c1ccccc1 (stereo not drawn)
Reply: Yes

Ask: Entry to check: `Cc1nn2c(N3CCN(CCO)CC3)cc(-c3ccccc3)nc2c1-c1cccc(CCCCCCCCCN2CCN(C(=O)COc3ccc(N4CCC(=O)NC4=O)cc3)CC2)c1`
Reply: No

Ask: Entry to check: `Cc1nn2c(N3CCN(CCO)CC3)cc(-c3ccccc3)nc2c1-c1cccc(CCCN2CCN(C(=O)CNc3ccc4c(N5CCC(=O)NC5=O)nn(C)c4c3)CC2)c1`
Reply: No

Ask: Entry to check: Cc1nn2c(N3CCN(CCO)CC3)cc(-c3cccc(CCCN4CCN(C(=O)CNc5cccc6c(C7CCC(=O)NC7=O)nn(C)c56)CC4)c3)nc2c1-c1ccccc1 (stereo not drawn)
Reply: Yes

Ask: Entry to check: Cc1nn2c(N3CCN(CCO)CC3)cc(-c3ccccc3)nc2c1-c1ccccc1 [Compound T1, reference compound]
Reply: No
